target: pancreatic lipase (Sus scrofa, UniProt P00591); assay: Fluorescence titration; type: binding; details: K a (binding constant), 277 K
measured metric: Kd (nM)
One number for each entry, in nM.

[ask] For pancreatic lipase (Sus scrofa, UniProt P00591), provide Kd of O=c1c(O[C@@H]2O[C@H](CO)[C@H](O)[C@H](O)[C@H]2O)c(-c2ccc(O)c(O)c2)oc2cc(O)cc(O)c12 [HYP, quercetin-3-O-β-D-galactoside] please.
[reply] 283

====

target: pancreatic lipase (Sus scrofa, UniProt P00591); assay: Fluorescence titration; type: binding; details: K a (binding constant), 298 K
measured metric: Kd

[ask] For pancreatic lipase (Sus scrofa, UniProt P00591), provide Kd of O=c1c(O[C@@H]2O[C@H](CO)[C@H](O)[C@H](O)[C@H]2O)c(-c2ccc(O)c(O)c2)oc2cc(O)cc(O)c12 [HYP, quercetin-3-O-β-D-galactoside] please.
[reply] 526 nM

====

Target: pancreatic lipase (Sus scrofa, UniProt P00591)
Sequence (P00591 1-450): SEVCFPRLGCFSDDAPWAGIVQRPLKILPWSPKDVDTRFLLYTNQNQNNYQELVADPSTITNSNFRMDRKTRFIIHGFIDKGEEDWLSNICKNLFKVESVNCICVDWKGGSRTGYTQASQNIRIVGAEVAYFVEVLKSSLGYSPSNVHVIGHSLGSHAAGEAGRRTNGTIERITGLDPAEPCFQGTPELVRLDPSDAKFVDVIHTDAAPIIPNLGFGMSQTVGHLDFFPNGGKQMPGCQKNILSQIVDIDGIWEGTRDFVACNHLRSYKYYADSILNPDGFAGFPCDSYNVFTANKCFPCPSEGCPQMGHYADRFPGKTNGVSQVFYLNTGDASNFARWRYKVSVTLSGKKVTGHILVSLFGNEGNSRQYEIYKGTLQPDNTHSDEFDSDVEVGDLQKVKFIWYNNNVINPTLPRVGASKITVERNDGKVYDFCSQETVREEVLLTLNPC
Experiment: Fluorescence titration
Assay type: binding
Details: K a (binding constant), 310 K
measured metric: Kd

[ask] Could you tell me which Kd is on file for O=c1c(O[C@@H]2O[C@H](CO)[C@H](O)[C@H](O)[C@H]2O)c(-c2ccc(O)c(O)c2)oc2cc(O)cc(O)c12 [HYP, quercetin-3-O-β-D-galactoside] ?
[reply] 954 nM

====

biological target: pancreatic lipase (Sus scrofa, UniProt P00591); experiment: ITC analysis of HYP titrated into lipase; type: binding
measured metric: Kd (µM)
Numbers only, in µM.

[ask] For pancreatic lipase (Sus scrofa, UniProt P00591), provide Kd of O=c1c(O[C@@H]2O[C@H](CO)[C@H](O)[C@H](O)[C@H]2O)c(-c2ccc(O)c(O)c2)oc2cc(O)cc(O)c12 [HYP, quercetin-3-O-β-D-galactoside] please.
[reply] 6.35

====

biological target: pancreatic lipase (Sus scrofa, UniProt P00591)
measured metric: pIC50
Numbers only, as −log10 of the molar value.

[ask] For pancreatic lipase (Sus scrofa, UniProt P00591), provide pIC50 of O=c1c(O[C@@H]2O[C@H](CO)[C@H](O)[C@H](O)[C@H]2O)c(-c2ccc(O)c(O)c2)oc2cc(O)cc(O)c12 [HYP, quercetin-3-O-β-D-galactoside] please.
[reply] 2.72
